# ASSAY TARGET: SARS-COV-2 RBD extracellular domain expressed with a C-terminal myc-myc-hexahistidine tag (SARS-CoV-2)
# EXPERIMENT: SPR (Biacore), mAb captured by anti-human Fc, RBD-mmH in solution, 25 C
OBSERVABLE: kon (M⁻¹ s⁻¹)
Please give a number only; it is taken to be in M⁻¹ s⁻¹.

Q: For the binder mAb15150 (antibody, V domains shown) VH: EVQLVETGGGLIQPGGSLRLSCAAPGFIVSSNYMSWVRQAPGKGLEWVSLLYPGGSTYYADSVKGRFTISRDNSKNTLYLQMNSLRADDTAVYYCARVLPIVEDHFDYWGQGTLVTVSS VL: DIQLTQSPSFLSASVGDRVTITCRASQGMSSYLAWYQKKPGKAPKLLIYGATILQSGVPSRFSGSGSGTEFTLTISSLQPEDFATYYCQQLNSDPLYMYTFGQGTKLEIKR , give its measured kon value.
Ans: 774000
